target: CYP3A4 (Homo sapiens, UniProt P08684); construct: human liver microsomes (0.4 mg/ml); from tissue; host or cells: human liver microsomes; test: CYP inhibition assay, human liver microsomes, CYP3A4; format: in vitro ADME; details: co-incubation, read-out: CYP 3A4 IC50 co
Sequence (P08684 whole entry): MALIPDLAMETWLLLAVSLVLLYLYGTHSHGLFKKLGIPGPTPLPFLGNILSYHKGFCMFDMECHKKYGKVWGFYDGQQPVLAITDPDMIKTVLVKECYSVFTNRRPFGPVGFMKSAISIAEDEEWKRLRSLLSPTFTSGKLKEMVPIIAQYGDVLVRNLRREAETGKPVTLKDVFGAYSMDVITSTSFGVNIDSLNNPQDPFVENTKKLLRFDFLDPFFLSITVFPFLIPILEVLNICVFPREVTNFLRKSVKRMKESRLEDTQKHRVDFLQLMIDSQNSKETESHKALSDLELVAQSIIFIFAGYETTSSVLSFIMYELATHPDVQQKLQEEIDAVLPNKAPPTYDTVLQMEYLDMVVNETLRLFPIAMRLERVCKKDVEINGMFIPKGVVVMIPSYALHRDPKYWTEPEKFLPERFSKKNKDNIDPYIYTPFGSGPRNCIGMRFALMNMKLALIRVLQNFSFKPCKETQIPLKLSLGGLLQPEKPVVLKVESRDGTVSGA
pIC50: −log10 of the molar value.
readout_kind: pIC50

structure_smiles_string: Cc1nc(N2C[C@H]3C(=O)N(C)C(=N)N[C@@]3(c3ccc(Cl)s3)C2)nc(C2CC2)c1F
measured_value: 4.80
//
structure_smiles_string: CCCc1nc(N2C[C@H]3C(=O)N(C)C(=N)N[C@@]3(c3ccc(Cl)s3)C2)nc(OC)c1F
measured_value: < 4.52
//
structure_smiles_string: Cc1nc(N2C[C@H]3C(=O)N(C)C(=N)N[C@@]3(c3cc(C#N)cs3)C2)nc(C2CC2)c1F
measured_value: < 4.52

In plain terms, CCc1nc(N2C[C@H]3C(=O)N(C)C(=N)N[C@@]3(c3ccc(Cl)s3)C2)nc(OC)c1F has a documented pIC50 of < 4.52

In plain terms, Cc1nc(N2C[C@H]3C(=O)N(C)C(=N)N[C@@]3(c3ccc(C#N)s3)C2)nc(C)c1F has a documented pIC50 of < 4.52

In plain terms, Cc1nc(N2C[C@H]3C(=O)N(C)C(=N)N[C@@]3(c3ccc(Cl)s3)C2)nc(C)c1F has a documented pIC50 of < 4.52

In plain terms, CCOc1nc(N2C[C@H]3C(=O)N(C)C(=N)N[C@@]3(c3ccc(Cl)s3)C2)nc(CC)c1F has a documented pIC50 of < 4.52

In plain terms, CCc1nc(N2C[C@H]3C(=O)N(C)C(=N)N[C@@]3(c3ccc(Cl)s3)C2)nc(C)c1F has a documented pIC50 of < 4.52
